Cited source: patent US20150376269A1

- study_target: T1, SRA.mmh
- T1 construct: also called SRA.mmh (CHO)
- T1 antigen: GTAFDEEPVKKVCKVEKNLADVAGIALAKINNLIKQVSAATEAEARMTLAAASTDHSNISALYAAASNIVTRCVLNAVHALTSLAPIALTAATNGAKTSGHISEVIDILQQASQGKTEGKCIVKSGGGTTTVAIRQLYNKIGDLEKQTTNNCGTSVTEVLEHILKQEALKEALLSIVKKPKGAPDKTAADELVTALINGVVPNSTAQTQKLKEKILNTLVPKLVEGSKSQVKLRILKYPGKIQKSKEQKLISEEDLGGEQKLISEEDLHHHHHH
- experiment_summary: Octet, SRA.mmh captured on anti-Penta-His tips, mAb-1 at 50 ug/mL for 5 min, 25 C, pH 7.4

binder | 50 ug/mL mAb 1 Bound (nm)
H1H10026P (antibody, V domains shown, Fully human antibody with human IgG1 Fc (prefix H1H)) VH: QVQLVESGGGVVQPGRSLRLSCEASGFTFSIYGMHWVRQAPGKGLEWVAVISYDGTNRYYADSVKGRFTISRDNSKNTLYLQMNSLRAEDTAVYYCAKVNIWNFLFDYWGQGTLVTVSS VL: EIVLTQSPGTLSLSPGERATLSCRASQSVSGNYLAWYQQKPGQAPRLLIYGPSSRATGIPDRFSGSGSGTDFTLTISRLEPEDFAVYYCQQYGTSLTFGGGTKVEIK | 1.45
H1H10041P (antibody, V domains shown, Fully human antibody with human IgG1 Fc (prefix H1H)) VH: QVQLVQSGAEVRKPGSSMKVSCATSGGNFRSYTINWVRQAPGQGLEWMGGVFPAVGTRIYAQKFQGRVTISTDESTTIAYMELNSLVPEDTAVYYCARSFNSPFDFWDQGTLVTVSS VL: AIQMTQSPSSLSASVGDRVTLTCRASQDIRNDLHWFQQTPGKAPRLLIYSASNLQSGVPSRFSGTGSGTDFTLTFSSLQPEDFATYYCLQDYSYPYTFGQGTKLEIK | 1.69
H1H10027P (antibody, V domains shown, Fully human antibody with human IgG1 Fc (prefix H1H)) VH: EVQLVESGGALVQPGRSLTLSCAASGFTFDDYTMHWVRQTPGKGLEWVSGILWNSDNLVYADSVKGRFTISRDNAKNSLYLQMNSLRVEDTALYYCTKEIDYLTLGGNAFDVWGQGTMVTVSS VL: DIQMTQSPSTLSASVGDRITITCRASQNINYWLAWYQQKPGKAPKLLIYKASSLAGGVPSRFSGSGSGTDFTLTINSLQPDDFATYYCQKYNTYSLNFGGGTKVEIK | 1.5
H1H10058P (antibody, V domains shown, Fully human antibody with human IgG1 Fc (prefix H1H)) VH: EVQLVESGGGLVQPGGSLRLSCAASGFTFNDFFMSWVRQAPGKGLEWVANLNQDGSERHYVDSVKGRFTISRDNAKNSLSLQMNSLRVEDTAVYYCAREGGDSWGQGTLVTVSS VL: DIVMTQSPDSLAVSLGERVTINCKSSQSILYSANNKDYLAWFHQKPGQPPKLLIYWASIRESGVPDRISGSGSGTDFTLTISSLQAEDVAVYYCQQYYLFPPTFGQGTKVEIK | 1.44
H1H10064P (antibody, V domains shown, Fully human antibody with human IgG1 Fc (prefix H1H)) VH: QVQLVQSGAEVKKPGSSVKVSCKASGGSFSSNVFSWVRQAPGQGLEWMGGIIPIFGSANYAQKFQGRVTITTDESTTTAYMELSSLRSEDTAVYYCAIGGTGPSGYNWNYGAFYIWGQGTMVTVSS VL: DIQMTQSPSSLSASVGDRVTITCRASQGIRNDLGWYQQKPGIAPKRLIYAASSLQSGVPSRFSGSGSGTEFTLTISSLQPEDFATYYCLQHNSYPYTFGQGTKLEIK | 1.25
H1H10067P (antibody, V domains shown, Fully human antibody with human IgG1 Fc (prefix H1H)) VH: QVQLQESGPGLVKPSQTLSLTCIVSGGSISSGDYYWNWIRQHPGKGLEWIGDIYHSGDTYYNPSLKSRVTISLDTSKNQFSLKLSSLTAADTAVYYCARDRIVATGGGMDVWGQGTTVTVSS VL: DIQMTQSPSTLSASVGDRVTITCRASQSISSWLAWYQRKPGKAPNLLIYRSSSLESGVPSRFSGSGSGTEFTLTISSLQADDFVIYYCQQYNSYPYTFGQGTKLEIK | 1.52
H2aM10204N (antibody, V domains shown, Chimeric antibody, human variable domains and mouse constant domains (mouse Fc, prefix H2aM); also called H2M10204N) VH: QVHLVQSGAEVKKPGSSVKVSCKASGGTFSNYAISWVRQAPGQGLEWMGGIIPFSGSATYAQNFQGRITITTDESTRTAYMELNGLRSEDTAVYYCARWFSGYGGDFDYWGQGTLVTVSS VL: AIQMTQSPSSLSASVGDRVTITCRASQDIKNDLGWYQQKPGKAPKLLIYAASTLQSGVPSRFSGSGSGTHFTLTLSSLQPEDFATYFCLQDYTFPRTFGQGTKVEIK | 1.46
H1H10059P (antibody, V domains shown, Fully human antibody with human IgG1 Fc (prefix H1H)) VH: QVQLVQSGAEVKKPGASVKVSCKAAGFTFIGYYIHWVRQAPGQGLEWMGWINSNSGDKDSAPKFQDRVTMTRDTSISTAYMELSRLRSDDTAVYFCAREGYNFGHFDYWGQGTLVTVSS VL: DIVMTQTPLSSPVTLGQPASISCRSSQSLVHSDGNTYLSWLQQRPGQPPRLLIYKISNRLSGVPDRFSGSGAGTDFTLKISRVEGEDVGVYYCMQGTQFPRTFGQGTKVEIK | 1.24
H2aM10200N (antibody, V domains shown, Hybridoma-derived chimeric antibody, human variable domains and mouse constant domains (mouse Fc, prefix H2aM); also called H2M10200N) VH: QVQLVQSGAEVKKPGSSVKVSCKASGGTFSSYAISWVRQAPGQGLEWMGGIIPFFGTATYAQKFQGRVTITTDESTRTVYMELSSLRYEDTAVYYCARWYSGYGGDFDYWGQGTLVTVSS VL: AIQMTQSPSSLSASVGDRVTITCRASQGIRNDLGWFQQKPGKAPKLLIYAASSLQSGVPSRFSGSGSGTDFTLSISSLQPEDFATYYCLQDYSYPRTFGQGTKVEIK | 1.59
H1H10061P (antibody, V domains shown, Fully human antibody with human IgG1 Fc (prefix H1H)) VH: QVQLVESGGGVVQPGNSLRLSCAASGFTFSAYGMHWVRQAPGKGLEWVAVISYDGSNEFYADSVKGRFTIFRDNSKNMLYLQMNSLRVEDTSIYYCAKDRGLGVYYFFYGMDVWGQGTTVTVSS VL: DIVMTQSPDSLVVSLGERATINCKSSQSLLYSSSNNNYLTWYQQKPGRPPKLLIYWASTRESGVPDRFSGSGSGTDFTLTISSLQAEDVAIYYCQQNYITPLTFGGGTKVEIK | 1.53
